# ASSAY_REMARKS: Cmax in Wistar rat at 10 ml/kg, po or 2 ml/kg, iv measured upto 24 hrs by LC-MS/MS analysis
# Type: ADME, organism-based
# ASSAY_SETUP: in vivo
ASSAY_METRIC: log10 Cmax (log10 of the value in ng/mL)

CHEM_SMILES	ASSAY_METRIC	OBSERVED_VALUE
Cl.Clc1ccc(OC[C@H]2C[C@@H]3C[C@@H]3N2)cn1	log10 Cmax	3.08
Cl.Clc1ccc(OC[C@@H]2CC[C@H]3C[C@H]3N2)cn1	log10 Cmax	3.52
Cl.c1cncc(OC[C@@H]2CC[C@H]3C[C@H]3N2)c1	log10 Cmax	2.82
Cl.Clc1ncccc1OC[C@@H]1C[C@H]2C[C@H]2N1	log10 Cmax	2.96
Cl.c1cncc(OC[C@@H]2C[C@@H]3C[C@@H]3N2)c1	log10 Cmax	3.18
Cl.Clc1cncc(OC[C@@H]2C[C@H]3C[C@H]3N2)c1	log10 Cmax	2.98
Cl.c1cncc(OC[C@@H]2C[C@H]3C[C@H]3N2)c1	log10 Cmax	3.88
Cl.Fc1ccc(OC[C@@H]2C[C@H]3C[C@H]3N2)cn1	log10 Cmax	3.58
Cl.Clc1ccc(OC[C@@H]2C[C@H]3C[C@H]3N2)cn1	log10 Cmax	3.28
Cl.Clc1ccc(OC[C@@H]2C[C@@H]3C[C@@H]3N2)cn1	log10 Cmax	2.80
